Kindly find below log10 of Ki information for Carbonic anhydrase 3 (Homo sapiens, UniProt P07451) taken from the literature.
Measured Property: log10 of Ki (log10 of the value in µM)

{"Item Smiles": "Cc1cn(-c2cc(NC(=O)c3ccc(C)c(Nc4nccc(-c5cccnc5)n4)c3)cc(C(F)(F)F)c2)cn1", "Numeric Value": -0.35}
{"Item Smiles": "Nc1ccccc1S(N)(=O)=O", "Numeric Value": 2.95}
{"Item Smiles": "NS(=O)(=O)c1ccc(S(=O)(=O)Nc2cccc3c(Cl)c[nH]c23)cc1", "Numeric Value": 1.02}
{"Item Smiles": "CC(C)(C)OC(=O)N(CCCN)CCCCN(CCCN)C(=O)OC(C)(C)C", "Numeric Value": 2.12}
{"Item Smiles": "CCOC(=O)c1cc2cc(CO)ccc2oc1=O", "Numeric Value": 1.78}
{"Item Smiles": "CC1(C)O[C@@H]2[C@@H](CO[C@@]3(CNS(N)(=O)=O)OC(C)(C)O[C@@H]23)O1", "Numeric Value": 3.60}
{"Item Smiles": "NS(=O)(=O)c1ccc(CO)cc1", "Numeric Value": 3.69}
